test system: Plasmodium falciparum; assay: GSK_TCMDC: Inhibition of Plasmodium falciparum 3D7 in whole erythrocytes, using parasite LDH activity as an index of growth.; format: functional, organism-based; conditions: Plasmodium falciparum, 3D7
XC50 strictly less than 600 nM = TRUE. Otherwise FALSE.

Dear colleague, could you confirm whether XC50 of CCCCc1cc(NCc2ccncc2)nc(Nc2ccc(C)cc2)n1 falls below 600 nM? Thanks.
FALSE

Same question for COc1ccc(N2CCN(CCCNC(=O)c3ccc(NC(=O)c4cc(Cl)cc(Cl)c4)cc3)CC2)c(OC)c1 please.
TRUE

Could you do the same for Cc1ccc(-c2nnc(-c3ccc(C(=O)NC4CCN(Cc5ccc(C#N)cc5)CC4)cc3)o2)cc1Br , please?
FALSE

Now the compound CCCCN(CCCC)CCCN(CCCN(CCCC)CCCC)c1cc(C)nc(Nc2ccc3cc(Br)ccc3c2)n1
TRUE

Then what about the compound O=S(=O)(Nc1cccc(CCN2CCCCC2CCN2CCCC2)c1)c1ccc(-c2ccccc2)cc1 (stereo not given) ?
FALSE

One more compound: O=C(N1CCN(c2ccnc3cc4c(cc23)N(Cc2ccccc2)CC4)CC1)C(F)(F)F
TRUE

Would you kindly repeat that for COc1ccc(CCn2c(=N)c(C(=O)NCc3cccnc3)cc3c(=O)n4ccccc4nc32)cc1 ?
FALSE

Query CC(C)(C)OC(=O)NCC(=O)N(Cc1ccccc1)Cc1ccccc1 next
TRUE

And then CS(=O)(=O)Nc1cccc(-c2cnc3[nH]cc(-c4ccc(C(=O)O)cc4)c3c2)c1 , what is it?
FALSE

CC(C)NCc1cccc(-c2ccc(NC(=O)c3ccc(F)cc3)cc2)c1 , same question.
FALSE

Could you do the same for CC1(C)N=C(N)N=C(N)N1c1ccc(Br)cc1 , please?
TRUE

Another compound: c1ccc2[nH]c(-c3ccc(-c4ccc(CN5CCCCC5)cc4)s3)nc2c1
FALSE

Do the same for CCN1CCN(c2ccc(Nc3ccnc4ccc(Br)cc34)cc2)CC1 please
TRUE

Next: COc1cc2nc(N[C@@H](CO)c3ccccc3)nc(NCc3ccccc3)c2cc1OC
FALSE

Now this one: CC[C@H]1CN2CC[C@H]1C[C@H]2[C@H](O)c1cc(N2CCCC2)nc2ccc(OC)cc12
TRUE

Now consider CN1CCC(NCc2ccc(-c3cnc(NCc4ccccc4)nc3)cc2)CC1 and answer again.
FALSE

Try the compound CC(=O)Nc1nc(C(=O)Nc2ccc(-c3cccc(-c4nc5ccccc5[nH]4)c3)cc2)cs1
TRUE

Moving on to Cc1ccccc1C1CCN(C2CCC(NC(=O)/C=C/c3ccc4c(c3)OC(F)(F)O4)CC2)CC1 (stereo not given)
FALSE

Can you check CC(=O)Nc1ncc(C(=O)Nc2cccc(-c3ccc(-c4nc5cc(F)ccc5[nH]4)cc3)c2)s1 next?
FALSE

Follow-up item: N#Cc1ccc(/C=C/C(=O)NCCCCCN2CCCN(C(=O)Nc3ccc(Cl)c(C(F)(F)F)c3)CC2)cc1
TRUE

Check CNC(=O)c1cc(S(=O)(=O)N2CCN(c3ccccn3)CC2)c(C)s1 too.
FALSE

Then what about the compound Cc1cccc2nc(-c3cccc(-c4cccc(NC(=O)C5CC(=O)Nc6ccccc65)c4)c3)[nH]c12 (stereo not given) ?
TRUE

Queued: COc1ccc(N(c2nc(-c3cc(Cl)ccc3Cl)cs2)C2CCNC2)cc1 (stereo not given)
FALSE

Another compound to look at: O=C(Nc1cccc(-c2cccc(-c3nc4ccccc4[nH]3)c2)c1)Nc1ccc(Cl)c(Cl)c1
TRUE

And for CC(C)N1CCN(C(=O)c2ccc(CNCCCN3CCN(c4cccc(Cl)c4Cl)CC3)o2)CC1 ?
FALSE

Here is the next compound: CNC(=O)c1cnc(Nc2ccc(N3CCN(C)CC3)c(C)c2)nc1NC
FALSE

Next: c1cn(CCCNc2ncc(-c3ccsc3)c(-c3nccs3)n2)cn1
FALSE

Consider next the compound Cc1ccc2[nH]cc(/C=C/C(=O)NC3CCC(CCN4CCc5ccc(C#N)cc5CC4)CC3)c2c1 (stereo not given) in the same way.
FALSE

Next compound up: N#Cc1ccc(C(=O)Nc2cc(-c3cccc(O)c3)cc3[nH]ncc23)cc1
FALSE

Again, but for O=C(Nc1ccc2c(c1)OCCO2)c1cc(-c2cccnc2)nc2ccc(Cl)cc12
FALSE

Same question, NCc1cccc(-c2ccc3ccnc(N)c3c2)c1 this time
TRUE

And what about the compound CC(=O)Nc1nc(C(=O)Nc2ccc(-c3ccc(-c4nc5cc(F)ccc5[nH]4)cc3)cc2)cs1 ?
TRUE

Proceed to O=C(Cn1c2ccccc2c(=O)c2ccc(Cl)cc21)Nc1ccc(C(F)(F)F)cc1
TRUE

Moving on to N=C1N=C(N)NCN1OCc1ccc(Cl)c(Cl)c1
TRUE

Ok, now CC(C)c1nc2c(N)nc(N)nc2nc1N
FALSE

Try this compound too: COc1ccc2cc(C(C)NC3CCN(c4cccc(NC(=O)c5ccncc5)c4)CC3)ccc2c1 (stereo not given)
FALSE

Consider next the compound COc1cccc(Cc2c(C)nc3nc(N)nc(N)c3c2C)c1 in the same way.
FALSE

Subsequent entry: O=C(Nc1ccc(C(F)(F)F)cc1)c1ccc(S(=O)(=O)NC2CCN(CC3CCCCC3)CC2)cc1
FALSE

Quick one: O=C(Cc1ccccc1)NC(Nc1ccc([N+](=O)[O-])cc1)C(Cl)(Cl)Cl (stereo not given)
FALSE

* * *

system: Plasmodium falciparum; assay: GSK_TCMDC: Inhibition of Plasmodium falciparum 3D7 in whole erythrocytes, using parasite LDH activity as an index of growth.; assay type: functional, organism-based; conditions: Plasmodium falciparum, 3D7
Just a reminder that ties go to Condition not met: only XC50 strictly below 800 nM counts as Condition met.

Check if XC50 falls below 800 nM for CCC(C)c1ccc(NC(=O)Nc2ccnc3ccccc23)cc1 (stereo not given) .
Condition met

Another compound to look at: Cc1cccc(CN2CCC(Oc3ccc(NC(=O)c4cccs4)cc3Cl)CC2)n1
Condition not met

Can you handle NC1=NC2(CCCCC2)N(OCCCCCCc2ccccc2)C(N)=N1 next?
Condition met

Another: COc1cc(C(=O)NC2CCc3ccccc32)cc(Cl)c1OC (stereo not given)
Condition not met

Ok, now Oc1ccccc1CN1CCCC(COC(c2ccc(F)cc2)c2ccc(F)cc2)C1 (stereo not given)
Condition met

Next compound up: O=C(CCC1CCCCC1)NCCNc1cccc2ccccc12
Condition not met

// repeat for COc1cc(NC(=O)/C=C/c2cccc3ccoc23)ccc1OCCN(C(C)C)C(C)C and report
Condition not met

Would you mind doing CCC(=Cc1cccc([N+](=O)[O-])c1)C(=O)NCC1CCN(c2nc3cc(OC)c(OC)cc3c(=N)[nH]2)CC1 as well?
Condition met

Can you handle COc1ccc(-c2ccc(NC(=O)c3cccc(Cl)c3)cc2)cc1CN1CCN(C)CC1 next?
Condition not met

Follow-up item: Cc1nc2ccc3ccc(CNc4ccc(C#N)cc4)cc3c2c(=O)[nH]1
Condition not met

* * *

tested on: Plasmodium falciparum; assay: GSK_TCMDC: Inhibition of Plasmodium falciparum 3D7 in whole erythrocytes, using parasite LDH activity as an index of growth.; assay type: functional, organism-based; settings: Plasmodium falciparum, 3D7
Define the label as rule met when XC50 is strictly less than 700 nM and as rule not met in all remaining cases.

I wonder whether O=C(Nc1cc(Cl)c(Cl)cc1NC(=O)c1cccc(-c2ccccc2)c1O)c1cccc(-c2ccccc2)c1O has XC50 below 700 nM. Can you tell?
rule met

Can you check CN1CCC(c2c[nH]c3ccc(NC(=O)Nc4ccc(-c5ccncc5)cc4Cl)cc23)CC1 next?
rule not met

Okay, and Cc1cc(O)c(-c2ccc(Oc3ccc(F)cc3)cc2)c(C)n1 ?
rule not met

Check CC(C)COc1ccc(Cl)cc1Cc1nc(-c2nc3ccc(CN4CCCC4)cc3[nH]2)co1 too.
rule not met

Input CCC[C@@H](/C=N/N(C)C(=O)OC(C)(C)C)NC(=O)[C@H](CC(C)C)NC(=O)c1cc2cccc(OC)c2o1
rule not met

O=C(/C=C/c1ccc(Cl)cc1)Nc1ccc2nc(CN3CCCC3)ccc2c1 , same question.
rule met

Thanks! And C[C@H](Cc1ccc(Oc2ccc(C[C@@H](C)NC[C@H](O)c3cccc(Cl)c3)cc2)cc1)NC[C@H](O)c1cccc(Cl)c1 ?
rule met

Input CCN1CCN(CC(O)CNC(=O)Nc2ccc(Cl)cc2)CC1 (stereo not drawn)
rule met

Request: O=C(/C=C/c1ccc(Cl)c(Cl)c1)NC1CCC(N2CCC(c3c[nH]c4ccc(O)cc34)CC2)CC1 (stereo not drawn)
rule not met

What about this compound? COc1cc2nc(C)nc(Nc3cccc(Br)c3)c2cc1OC
rule met

Do the same for COc1cccc(C(=O)NC(NC(=S)Nc2ccc(OC)cc2[N+](=O)[O-])C(Cl)(Cl)Cl)c1 (stereo not drawn) please
rule not met

Same lookup for Cc1nn(-c2ccccc2)c2c1C(c1ccc(C(C)C)cc1)N1C(=N2)N(Cc2ccccc2)c2ccccc21 (stereo not drawn) , please.
rule not met

# repeat for COC(=O)/C=C/C(=O)N[C@@H]1CC[C@@]2(O)[C@H]3Cc4ccc(O)c5c4[C@@]2(CCN3CC2CC2)[C@H]1O5
rule met

Try the compound Cc1cccc2nc(-c3cccc(-c4ccc(NC(=O)C(=O)c5cccn5C)cc4)c3)[nH]c12
rule met

Moving on to c1ccc(C23NC(=Nc4nc5ccccc5[nH]4)NC2(c2ccccc2)NC(=Nc2nc4ccccc4[nH]2)N3)cc1 (stereo not drawn)
rule met

Another: COc1ccc(CN2CCCC(Nc3ccc(F)c(F)c3)C2)c(O)c1 (stereo not drawn)
rule not met

Proceed to O=c1cc(NCCCNCc2ccccc2-c2ccccc2)[nH]c2ccccc12
rule not met

Item: O=C(Nc1ccc(-c2ccc(-c3nc4ccccc4[nH]3)s2)cc1)Nc1ccc(Cl)c(Cl)c1
rule met

Cool, now CCC(C)CN1CCN(c2ccc(NC(=O)c3cccs3)cc2)C(C)C1 (stereo not drawn)
rule met

Then this compound: Cn1ncc2c3c(CCN4CCC(NCc5ccc6c(c5)NC(=O)CO6)CC4)c(Cl)cnc3ccc21
rule met

Here is the next compound: CC(C)NCc1cccc(-c2cccc(NC(=O)c3cccc(Cl)c3)c2)c1
rule met

Same lookup for COc1cc(Cc2cnc(N)nc2N)ccc1OCc1cccc(Oc2ccccc2)c1 , please.
rule not met

And for COc1cccc2c(N/N=C/c3ccc([N+](=O)[O-])cc3)ccnc12 ?
rule not met

Also need c1ccc2c(CNc3ccnc(NCc4cccc5ccccc45)n3)cccc2c1 , thanks.
rule met

Moving on to the next compound: CN(C)c1ccc(/N=C2/N/C(=N/c3ccc(N(C)C)cc3)c3ccccc32)cc1
rule not met

Follow-up item: C=CC[C@H](C[C@H](O)[C@H](Cc1ccccc1)NC(=O)c1ccc(-c2cccnn2)cc1)C(=O)NC1CCCCC1
rule not met

What about COc1cc2nc(NCC3CCCCC3)nc(NCc3ccccc3)c2cc1OC ?
rule met

Item: CC(C)Oc1ccc(N2CCN(CCCCNC(=O)c3ccc(NC(=O)c4ccc(Cl)cc4)cc3)CC2)c(OC(C)C)c1
rule met

Next: CCc1nc(N)nc(N)c1-c1ccc(F)c(F)c1
rule met

Moving on to the next compound: CO/C(=C\C=C\c1cc2cc(Cl)c(Cl)cc2[nH]1)C(=O)NCCCNCCN(C)c1ccccc1
rule not met

Quick one: CCN(CC)CCN(Cc1ccc(-c2ccc(C(F)(F)F)cc2)cc1)C(=O)Cn1c(CCc2cccc(F)c2F)nc(=O)c2ccccc21
rule met

Please answer likewise for CN1CCC(N2CCC(Oc3cccc(C(=O)NCCCC4CCCC4)c3)CC2)CC1
rule not met

Follow-up entry: Cc1cc(NC2CCN(CC3CCCCC3)C2)nc(Nc2ccc(Cl)cc2)n1 (stereo not drawn)
rule met

What do you have for COc1ccc(CC(C)CON2C(N)=NC(N)=NC2(C)C)cc1 (stereo not drawn) ?
rule met

COc1ccc2nccc([C@@H](O)CN3CCC(NCc4cc5c(Cl)cc(Cl)cc5[nH]4)CC3)c2c1 ?
rule met

Then this compound: c1ccc(Oc2ccc(Nc3ccnc4cc(-c5ccc(CN6CCCCC6)o5)ccc34)cc2)nc1
rule met

Entry C=CCc1cccc(C)c1OCCCON1C(=N)N=C(N)NC1(C)C please
rule met
